Catalogue of compounds with associated EC50
Biological target: human PPARα ligand-binding domain (Gal4 chimera) (Homo sapiens)
Construct: coding for the hinge region and LBD of the canonical isoform of the respective nuclear receptor; expressed in transfected cells; host or cells: HEK293T
Sequence (Q07869 239-466 limits assumed): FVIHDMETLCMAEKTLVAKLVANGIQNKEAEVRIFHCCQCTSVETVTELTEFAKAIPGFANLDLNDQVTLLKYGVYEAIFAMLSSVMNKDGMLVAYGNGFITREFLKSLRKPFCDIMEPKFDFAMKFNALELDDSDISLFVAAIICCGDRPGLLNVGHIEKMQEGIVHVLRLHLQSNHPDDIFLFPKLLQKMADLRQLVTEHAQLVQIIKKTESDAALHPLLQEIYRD
Assay: Gal4 hybrid reporter gene assay, PPARα
Type: cell-based
Conditions: PPAR EC50 [M], Supplementary Table 1, chromene derivatives; mean ± SEM, n ≥ 2
Field format: number, assumed M, no unit text.

O=C(O)CCc1cccc(NC(=O)c2ccccc2NC(=O)C2=C(Cl)c3ccccc3OC2)c1 | 4.6e-07
O=C(O)CCc1cccc(NC(=O)c2ccccc2NC(=O)C2=Cc3ccccc3OC2)c1 | 5.2e-06

In: Read the entry Cc1ccc2c(c1)OCC(C(=O)Nc1ccccc1C(=O)Nc1cccc(CCC(=O)O)c1)=C2 and write its reported EC50.
Out: 3.4e-06

In: Read the entry O=C(O)CCc1cccc(NC(=O)c2ccccc2NC(=O)C2=Cc3cc(F)ccc3OC2)c1 and write its reported EC50.
Out: 1.8e-06

In: Read the entry O=C(O)CCc1cccc(NC(=O)c2ccccc2NC(=O)C2=Cc3cccc(Cl)c3OC2)c1 and write its reported EC50.
Out: 2.3e-06

In: Read the entry COc1cccc2c1OCC(C(=O)Nc1ccccc1C(=O)Nc1cccc(CCC(=O)O)c1)=C2 and write its reported EC50.
Out: 6.6e-06

In: Read the entry Cc1ccc2c(c1)C=C(C(=O)Nc1ccccc1C(=O)Nc1cccc(CCC(=O)O)c1)CO2 and write its reported EC50.
Out: 8.4e-07

In: Read the entry Cc1cccc2c1OCC(C(=O)Nc1ccccc1C(=O)Nc1cccc(CCC(=O)O)c1)=C2 and write its reported EC50.
Out: 3.5e-06

In: Read the entry Cc1cccc2c1C=C(C(=O)Nc1ccccc1C(=O)Nc1cccc(CCC(=O)O)c1)CO2 and write its reported EC50.
Out: 8.3e-07

In: Read the entry O=C(O)CCc1cccc(NC(=O)c2ccccc2NC(=O)C2=Cc3cc(Cl)ccc3OC2)c1 and write its reported EC50.
Out: 3.1e-06
